Every entry's value here was drawn from patent US20210238260.

Biological target: plasma purified human AT-III (antithrombin III)
Experiment: AT-III/UFH inhibition K0.5, ratio to Catalyst Biosciences WT FIXa
PROPERTY MEASURED: K0.5-mut/K0.5-wt

- PROTEIN: "FIXa-K228N/K247N/N249S (protein) chain 1: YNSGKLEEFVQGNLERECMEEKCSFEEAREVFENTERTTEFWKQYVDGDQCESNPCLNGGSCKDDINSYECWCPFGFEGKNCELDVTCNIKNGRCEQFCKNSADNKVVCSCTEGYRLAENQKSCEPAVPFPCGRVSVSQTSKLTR chain 2: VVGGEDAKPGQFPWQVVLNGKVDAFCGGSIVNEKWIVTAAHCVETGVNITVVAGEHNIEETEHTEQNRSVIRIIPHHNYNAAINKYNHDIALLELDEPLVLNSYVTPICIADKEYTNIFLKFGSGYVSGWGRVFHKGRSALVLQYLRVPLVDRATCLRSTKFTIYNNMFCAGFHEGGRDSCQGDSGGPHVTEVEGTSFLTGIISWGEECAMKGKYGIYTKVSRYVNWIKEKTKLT"
  MEASURED VALUE: 4.4
